target: Estrogen receptor (Homo sapiens) (UniProt P03372); test: ERalpha ligand binders by competition, primary screen, cell-based, Cos7 ERalpha-GFP, flow cytometry (AID 1211); conditions: fluorescent ligand competition, binding inhibition, at 0.1 µM, stronger effect = higher value;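 further: 0% = DMSO vehicle wells and 100% = no E2-Alexa633 signal left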
Sequence (P03372 whole entry, looked up): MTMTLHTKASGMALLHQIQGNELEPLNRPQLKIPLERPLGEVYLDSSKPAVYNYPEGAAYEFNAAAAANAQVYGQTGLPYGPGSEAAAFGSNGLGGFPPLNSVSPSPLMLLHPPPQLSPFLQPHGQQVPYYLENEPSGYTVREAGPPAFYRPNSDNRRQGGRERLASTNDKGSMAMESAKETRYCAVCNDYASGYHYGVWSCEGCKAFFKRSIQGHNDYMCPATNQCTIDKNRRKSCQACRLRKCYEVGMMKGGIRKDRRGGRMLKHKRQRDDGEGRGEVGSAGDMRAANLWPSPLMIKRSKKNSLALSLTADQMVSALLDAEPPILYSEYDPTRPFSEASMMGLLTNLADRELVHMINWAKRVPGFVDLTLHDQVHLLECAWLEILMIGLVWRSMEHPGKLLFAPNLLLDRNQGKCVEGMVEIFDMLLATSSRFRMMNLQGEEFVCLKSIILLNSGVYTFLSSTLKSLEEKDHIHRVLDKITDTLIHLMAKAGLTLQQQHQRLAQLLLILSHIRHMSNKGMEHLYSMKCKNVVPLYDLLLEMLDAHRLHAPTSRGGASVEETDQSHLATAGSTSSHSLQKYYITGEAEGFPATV

Compound: Oc1ccc(/C=N/n2c(-c3ccco3)csc2=Nc2cccnc2)c(O)c1
inhibition of ligand binding: 21%

Compound: CC(=O)c1sc2nc(SCC(=O)N3CCCCC3)[nH]c(=O)c2c1C
inhibition of ligand binding: 30%

Compound: CCc1nc(N)nc(N)c1-c1ccc(Cl)cc1
inhibition of ligand binding: 25%

Compound: CCOC(=O)c1c(C)oc2c1c(C=NC1CCS(=O)(=O)C1)c(O)c1ccccc12 (stereo unspecified)
inhibition of ligand binding: 43%

Compound: O=C(COC(=O)CCC(=O)c1cccs1)NCc1ccco1
inhibition of ligand binding: 74%

Compound: Cc1ccc(C2=Nc3ccccc3N=C(c3ccco3)C2)c(O)c1
inhibition of ligand binding: 26%

Compound: COc1ccc(C)cc1-n1nnnc1SCC(=O)NC(=O)NCc1ccco1
inhibition of ligand binding: 26%

Compound: CC(Oc1ccc(Cl)cc1Cl)C(=O)Nc1ccc2oc(-c3ccncc3)nc2c1 (stereo unspecified)
inhibition of ligand binding: 40%

Compound: CC(=O)Nc1nonc1-c1nc2ccccc2n1N(C(C)=O)C(C)=O
inhibition of ligand binding: 59%

Compound: CCc1ccc(Nc2nc(N)nc(CSc3nnnn3-c3ccccc3)n2)cc1
inhibition of ligand binding: 16%

Compound: O=C(Nc1ccc(N2CCCC2)cc1)C(c1ccccc1)c1ccccc1
inhibition of ligand binding: 7%
